- Subject Of Test: human CD33 (human, UniProt P20138 18-364)
- Sequence (P20138 18-364): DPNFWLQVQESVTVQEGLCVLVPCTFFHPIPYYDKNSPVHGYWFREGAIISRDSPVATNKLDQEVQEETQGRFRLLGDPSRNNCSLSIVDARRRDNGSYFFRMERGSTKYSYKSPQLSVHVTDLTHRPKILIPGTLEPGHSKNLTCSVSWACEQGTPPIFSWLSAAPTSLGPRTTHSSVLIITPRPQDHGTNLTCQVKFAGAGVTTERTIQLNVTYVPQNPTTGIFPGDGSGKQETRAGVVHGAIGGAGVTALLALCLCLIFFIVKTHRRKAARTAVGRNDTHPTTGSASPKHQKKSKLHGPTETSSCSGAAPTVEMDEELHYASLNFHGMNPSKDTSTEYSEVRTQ
- Procedure Details: cell-based or functional assay
The following binders are listed with their measured Percent CD33 Surface Expression, DC % CD33 values.
Assay Endpoint: Percent CD33 Surface Expression, DC % CD33 (%)

- Binder: "C-36 (antibody, V domains shown, human IgG1) VH: EVQLVESGGGLVQPGGSLRLSCAASGFTFSSYWMSWVRQAPGKGLEWVANIKQDGSEKYYVDSVKGRFTISRDNAKNSLYLQMNSLRAEDTAVYYCARDGQYYPAYGMDVWGQGTTVTVSS VL: EIVMTQSPATLSVSPGERATLSCRASQSVSSNLAWYQQKPGQAPRLLIYGASTRATGIPARFSGSGSGTEFTLTISSLQSEDFAVYYCQQYFDLPTFGGGTKVEIK"
  Value Reported: 21.2
- Binder: "C-34 (antibody, V domains shown, human IgG1) VH: EVQLVESGGGLVQPGGSLRLSCAASGFTFSSYWMSWVRQAPGKGLEWVANINQDGSEKYYVDSVKGRFTISRDNAKNSLYLQMNSLRAEDTAVYYCARDHGATGPDFDLWGRGTLVTVSS VL: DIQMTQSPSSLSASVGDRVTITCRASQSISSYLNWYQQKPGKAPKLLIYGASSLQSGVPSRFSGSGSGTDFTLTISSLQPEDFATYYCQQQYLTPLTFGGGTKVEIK"
  Value Reported: 20.1
- Binder: "C-56 (antibody, V domains shown, human IgG1) VH: EVQLVESGGGLVQPGGSLRLSCAASGFTFSSYWMSWVRQAPGKGLEWVANIKQDGSEKYYVDSVKGRFTISRDNAKNSLYLQMNSLRAEDTAVYYCARDYGSVAGTPFDYWGQGTLVTVSS VL: DIQMTQSPSSLSASVGDRVTITCRASQSISSYLNWYQQKPGKAPKLLIYAASSLQSGVPSRFSGSGSGTDFTLTISSLQPEDFATYYCQQVLHTPLTFGGGTKVEIK"
  Value Reported: 19.7
- Binder: "C-25 (antibody, V domains shown, human IgG1) VH: EVQLVESGGGLVQPGGSLRLSCAASGFTFSSYWMSWVRQAPGKGLEWVANIKSDGSEKYYVDSVKGRFTISRDNAKNSLYLQMNSLRAEDTAVYYCAREGFRDGINWFDPWGQGTLVTVSS VL: DIQMTQSPSSLSASVGDRVTITCRASQSISRYLNWYQQKPGKAPKLLIYAASSLQSGVPSRFSGSGSGTDFTLTISSLQPEDFATYYCQQQFLTPITFGGGTKVEIK"
  Value Reported: 22.3
- Binder: "C-12 (antibody, V domains shown, human IgG1) VH: EVQLLESGGGLVQPGGSLRLSCAASGFTFSNYAMSWVRQAPGKGLEWVSAISGSGGSTYYADSVKGRFTISRDNSKNTLYLQMNSLRAEDTAVYYCARDGSRYSYGLVAYGMDVWGQGTTVTVSS VL: EIVLTQSPGTLSLSPGERATLSCRASQSVSSSFLAWYQQKPGQAPRLLIYGASSRATGIPDRFSGSGSGTDFTLTISRLEPEDFAVYYCQQSQLRPTFGGGTKVEIK"
  Value Reported: 23.6
- Binder: "C-3 (antibody, V domains shown, human IgG1) VH: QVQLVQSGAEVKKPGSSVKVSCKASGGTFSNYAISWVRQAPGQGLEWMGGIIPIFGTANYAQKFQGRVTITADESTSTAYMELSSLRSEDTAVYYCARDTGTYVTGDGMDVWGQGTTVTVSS VL: EIVMTQSPATLSVSPGERATLSCRASQSVSSNLAWYQQKPGQAPRLLIYGASTRATGIPARFSGSGSGTEFTLTISSLQSEDFAVYYCQQYDVWPITFGGGTKVEIK"
  Value Reported: 27.9
- Binder: "C-68 (antibody, V domains shown, human IgG1) VH: QVQLQESGPGLVKPSQTLSLTCTVSGGSISSGGYYWSWIRQHPGKGLEWIGNIYYSGSTYYNPSLKSRVTISVDTSKNQFSLKLSSVTAADTAVYYCARDLPNSGSPGSDYFDYWGQGTLVTVSS VL: EIVLTQSPGTLSLSPGERATLSCRASQSVSSSYLAWYQQKPGQAPRLLIYGASSRATGIPDRFSGSGSGTDFTLTISRLEPEDFAVYYCQQYDNYPPTFGGGTKVEIK"
  Value Reported: 59.1
- Binder: "C-16 (antibody, V domains shown, human IgG1) VH: EVQLVESGGGLVQPGGSLRLSCAASGFTFSSYWMSWVRQAPGKGLEWVANINQDGSEKYYVDSVKGRFTISRDNAKNSLYLQMNSLRAEDTAVYYCAREGSDRHPFDYWGQGTLVTVSS VL: DIQMTQSPSSLSASVGDRVTITCRASQSISSYLNWYQQKPGKAPKLLIYAASSLQSGVPSRFSGSGSGTDFTLTISSLQPEDFATYYCQQAYLVPLTFGGGTKVEIK"
  Value Reported: 19.5
- Binder: "C-33 (antibody, V domains shown, human IgG1) VH: EVQLVESGGGLVQPGGSLRLSCAASGFTFSSYWMSWVRQAPGKGLEWVANIKSDGSEKYYVDSVKGRFTISRDNAKNSLYLQMNSLRAEDTAVYYCAREGRPRLGYAAFDIWGQGTMVTVSS VL: DIQMTQSPSSLSASVGDRVTITCRASQSISSYLNWYQQKPGKAPKLLIYAASSLQSGVPSRFSGSGSGTDFTLTISSLQPEDFATYYCQQQYDLPITFGGGTKVEIK"
  Value Reported: 18.4
- Binder: "C-64 (antibody, V domains shown, human IgG1) VH: QVQLVQSGAEVKKPGSSVKVSCKASGGTFSSLAISWVRQAPGQGLEWMGGIIPIFGTANYAQKFQGRVTITADESTSTAYMELSSLRSEDTAVYYCARGTFYSDELFDYWGQGTLVTVSS VL: DIQMTQSPSSVSASVGDRVTITCRASQGISSWLAWYQQKPGKAPKLLIYAASSLQSGVPSRFSGSGSGTDFTLTISSLQPEDFATYYCQQENSYPLTFGGGTKVEIK"
  Value Reported: 31

Origin of the recorded values: patent US20220281976A1
